These measurements were taken from ChEMBL document CHEMBL5244269.

# IC50 per entry
biological target: Interleukin-1 receptor-associated kinase 4 (Homo sapiens, UniProt Q9NWZ3); assay: Inhibition of IRAK4 (unknown origin) in presence of ATP by enzymatic assay
Sequence (Q9NWZ3 whole entry): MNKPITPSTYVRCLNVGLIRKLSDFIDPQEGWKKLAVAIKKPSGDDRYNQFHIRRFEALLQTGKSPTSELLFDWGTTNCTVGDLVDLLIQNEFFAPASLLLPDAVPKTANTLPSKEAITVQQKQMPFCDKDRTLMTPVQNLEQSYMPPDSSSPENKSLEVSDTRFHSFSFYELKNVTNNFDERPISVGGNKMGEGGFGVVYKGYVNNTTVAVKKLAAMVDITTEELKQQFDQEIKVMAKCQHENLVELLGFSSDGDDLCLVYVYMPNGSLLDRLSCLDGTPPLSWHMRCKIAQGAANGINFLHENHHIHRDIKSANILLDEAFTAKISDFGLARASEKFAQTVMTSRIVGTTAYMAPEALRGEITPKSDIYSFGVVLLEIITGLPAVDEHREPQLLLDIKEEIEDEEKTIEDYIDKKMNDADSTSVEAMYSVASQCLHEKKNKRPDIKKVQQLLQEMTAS
Record the value in nM, omitting the unit from your answer.

structureNotation	numericValue
Cc1ncncc1-c1ccc2nc(Nc3cnn(C4CCN(C)CC4)c3)nc(OC3(C)CC3)c2n1	5
CN1CCC(n2cc(Nc3nc(OC4(C)CC4)c4nc(-c5cn(C)cn5)ccc4n3)cn2)CC1	730
CN1CCC(n2cc(Nc3nc(OC4(C)CC4)c4nc(-c5cncnc5)c(F)cc4n3)cn2)CC1	1
COC(=O)N1CCN([C@H]2CC[C@H](Nc3nc(Nc4cnn(C)c4)nc4ccc(CC#N)nc34)CC2)CC1	3

We next turn to a different compound, shown below.
*Q* I have this compound here, CC(=O)N1CCC(n2cc(Nc3nc(OC4CCOCC4)c4nc(C)ccc4n3)cn2)CC1 , and I need its recorded IC50.
*A* 3

###

assay: Plasma protein binding in human assessed as free fraction by equilibrium dialysis analysis; assay type: ADME, cell-free
quantityMeasured: fraction unbound

*Q* Return reported fraction unbound; argument: Cc1ncc(-c2nc3c(OC4(C)CC4)nc(Nc4cnn(C5CCN(C)CC5)c4)nc3cc2F)cn1
*A* 0.21

###

test: Metabolic stability in monkey liver microsomes assessed as intrinsic clearance; assay type: ADME, Macaca mulatta, Microsome; settings: rhesus monkey, read-out: CLH
quantityMeasured: microsomal CLint (µL/min/mg)
Field format: number, assumed µL/min/mg, no unit text.

*Q* Endpoint output: microsomal CLint of Cc1ncc(-c2nc3c(OC4(C)CC4)nc(Nc4cnn(C5CCN(C)CC5)c4)nc3cc2F)cn1 . Value?
*A* 35

###

assay: Metabolic stability in human liver microsomes assessed as half life; assay type: ADME, Microsome
quantityMeasured: half-life (h)
The reply should contain only the number, in h.

*Q* Record request: half-life value, item Cc1ncc(-c2nc3c(OC4(C)CC4)nc(Nc4cnn(C5CCN(C)CC5)c4)nc3cc2F)cn1
*A* 3

###

The entries below come with measured IC50 values attached.
target: Interleukin-1 receptor-associated kinase 4 (Homo sapiens, UniProt Q9NWZ3); assay: Inhibition of IRAK4 (unknown origin) phosphorylation by cell based assay
Respond with the bare value in nM.

structureNotation	numericValue
CC(=O)N1CCC(n2cc(Nc3nc(NC4CCOCC4)c4nc(CC#N)ccc4n3)cn2)CC1	670
Cc1ncncc1-c1ccc2nc(Nc3cnn(C4CCN(C)CC4)c3)nc(OC3(C)CC3)c2n1	170
Cc1ncc(-c2ccc3nc(Nc4cnn(C5CCN(C)CC5)c4)nc(OC4(C)CC4)c3n2)c(C)n1	260

We next turn to a different compound, shown below.
*Q* Reported IC50, compound CN1CC2(CC(n3cc(Nc4nc(OC5(C)CC5)c5nc(C6CC6)c(F)cc5n4)cn3)C2)C1 : ____
*A* 300

###

experiment: Plasma protein binding in monkey assessed as free fraction by equilibrium dialysis analysis; type: ADME, cell-free, Macaca mulatta; conditions: rhesus monkey
quantityMeasured: fraction unbound
Respond with the number and no other words.

*Q* Record request: fraction unbound value, item Cc1ncc(-c2nc3c(OC4(C)CC4)nc(Nc4cnn(C5CCN(C)CC5)c4)nc3cc2F)cn1
*A* 0.33

###

experiment: Metabolic stability in human cytosol assessed as intrinsic clearance; format: ADME, subcellular
quantityMeasured: log10(microsomal CLint) (log10 of the value in µL/min/mg)
Would you kindly interpret these values as log10 of microsomal CLint expressed in µL/min/mg?

*Q* GET /values?readout=log10(microsomal CLint)&item= Cc1ncc(-c2ccc3nc(Nc4cnn(C5CCN(C)CC5)c4)nc(OC4(C)CC4)c3n2)cn1
*A* 1.84

*Q* How about this compound: CN1CCC(n2cc(Nc3nc(OC4(C)CC4)c4nc(-c5cncnc5)ccc4n3)cn2)CC1
*A* 2.28

*Q* Now the same for Cc1ncncc1-c1ccc2nc(Nc3cnn(C4CCN(C)CC4)c3)nc(OC3(C)CC3)c2n1
*A* 0.68

*Q* Try the compound Cc1ncc(-c2ccc3nc(Nc4cnn(C5CCN(C)CC5)c4)nc(OC4(C)CC4)c3n2)c(C)n1
*A* 0.34

*Q* # iterate: CN1CCC(n2cc(Nc3nc(OC4(C)CC4)c4nc(-c5cncnc5)c(F)cc4n3)cn2)CC1
*A* 1.30
